These data points were gathered from ChEMBL document CHEMBL5058577.

System: HEK-293T
Assay: Multiplex assay against HEK293T
Assay type: toxicity, cell-based
Settings: human, 48 h, 1 µM, compound concentration 1 uM, replicate 1
I'd appreciate it if you could supply Population Mitochondria Different-Phenotype (%) values for the items below.
Numbers only, in %.

These recorded examples may help you get a feel for the data.
Given item Cc1cc(O)c(-c2ccc([C@@H](C)CN(C)C)cc2)c2c1[nH]c(=O)c1sccc12 , the value recorded as its Population Mitochondria Different-Phenotype (%) is 90

Given item O=c1nc2[nH]c3ccccc3nc-2c(=O)[nH]1 , the value recorded as its Population Mitochondria Different-Phenotype (%) is 18

Given item CN(C)C/C=C/C(=O)Nc1ccc(C(=O)N2CCCC(Nc3ncc(Cl)c(-c4c[nH]c5ccccc45)n3)C2)cc1 (stereo unspecified) , the value recorded as its Population Mitochondria Different-Phenotype (%) is 79

Given item CC(C)C[C@H](CO)Nc1nc(S[C@@H](C)c2ccccc2)nc2nc(N)sc12 , the value recorded as its Population Mitochondria Different-Phenotype (%) is 16

// for each compound in input: emit Population Mitochondria Different-Phenotype (%)
1. CN1CCC(C(=O)c2cccc(NC(=O)c3c(F)cc(F)cc3F)n2)CC1
2. COc1cc(OC2CCN(C(C)=O)CC2)ccc1C(=O)N1CCC(N2C(=O)OCc3ccccc32)CC1
3. Cc1cc(NC(=O)NCCN2CCC(O)(Cc3ccccc3)CC2)c2ccccc2n1
4. CCc1nn2c(C)cc(C)nc2c1Cc1ccc(-c2nnc(C3CCNCC3)o2)cc1
5. COc1cc(Nc2ncc3c(n2)-c2ccc(Cl)cc2C(c2c(F)cccc2OC)=NC3)ccc1C(=O)O

# output
[19, 19, 16, 25, 14]
